B1: TRIM55 (parent)
chain: FQMEKIEHGYENMNHFTVNLNREE

# Variants of: B1
# protocol: protein stability index of a GFP-peptide fusion (GPS, HEK-293T) (PSI 1-6); higher = more stable;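 also: lentivirally expressed fusions sorted by FACS into six bins by GFP to DsRed ratio, PSI derived from sequencing read proportions per bin multiplied by bin number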
# conditionContext: c terminus: a fixed tail appended
So basically every entry gets a class from its protein stability index, ranges being lower bin: < 2; middle bin: ≥ 2 and < 3; upper bin: ≥ 3

variantDescription	assignedCategory
N21L	middle bin
N19H	middle bin
G9F	middle bin
E7Q	middle bin
I6T	middle bin
E7D	middle bin
N19R	middle bin
H8I	middle bin
N12F	middle bin
N21H	middle bin
M13N	upper bin
E4W	lower bin
H15V	lower bin
F1D	upper bin
V18D	upper bin
E4S	lower bin
N12H	middle bin
H15F	middle bin
T17K	upper bin
M3K	middle bin
L20Q	upper bin
I6M	middle bin
F16K	upper bin
E11Q	middle bin
I6E	upper bin
N19M	middle bin
N19Y	lower bin
T17G	middle bin
R22A	middle bin
V18A	upper bin
E11A	lower bin
F16E	upper bin
E23A	lower bin
K5F	lower bin
F16R	upper bin
Q2C	middle bin
E7T	middle bin
F1A	upper bin
N14M	middle bin
